Tested on: HEK293T (UBE3A T485A transfected, BAR Wnt reporter)
Experiment: Renilla luciferase signal (cell health) relative to plate median (fold (linear ratio)); higher = higher Renilla signal
Conditions: concentration: 0.1 uM; 24 h
Over roughly 1,100 compounds, “Renilla luciferase signal (cell health) relative to plate median” has its median near 0.97; the highest 2% begin near 1.6. Many of the other results were omitted from the sample, so the highest values are more common in it than they were.
readout.label: Renilla luciferase signal

1) Nc1cc(Cl)cc(C(=O)O)c1Cl; 1.02
2) Cc1cnc(C2=NC(=O)C(C)(C(C)C)N2)c(C(=O)O)c1 (centres undefined); 1.17
3) C[N+]1(C)CCCCC1.[Cl-] [Mepiquat chloride]; 1.08
4) [OH][Sn]([c]1ccccc1)([c]1ccccc1)[c]1ccccc1 [Triphenyltin hydroxide]; 0.622
5) OCCOc1ccccc1; 0.856
6) CCOC(=O)C(Cl)Cc1cc(-n2nc(C)n(C(F)F)c2=O)c(F)cc1Cl (centres undefined); 1.11
7) CCSC(=O)N1CCCCCC1 [Molinate]; 0.899
8) CCOC(=O)COc1cc(-c2nn(C)c(OC(F)F)c2Cl)c(F)cc1Cl; 0.651
9) COc1cc(OC)nc(Sc2cccc(Cl)c2C(=O)[O-])n1.[Na+] [Pyrithiobac-sodium]; 1.16

----------
Test system: HEK293T (UBE3A T485A transfected, BAR Wnt reporter)
Assay: Renilla luciferase signal (cell health) relative to plate median (fold (linear ratio)); higher = higher Renilla signal
Settings: concentration: 1 uM; 24 h
In all, about 1,100 compounds were measured (“Renilla luciferase signal (cell health) relative to plate median”: median about 0.97, highest 2% from about 1.6 on). The sample as a whole holds a higher share of the highest values than the screen did.
# Renilla luciferase signal per entry
readout.label: Renilla luciferase signal

1. CC(C)COC(=O)c1ccccc1C(=O)OCC(C)C [Diisobutyl phthalate]; 0.827
2. CCOP(=S)(OCC)SCSP(=S)(OCC)OCC; 0.935
3. CCCN(CCC)c1c([N+](=O)[O-])cc(C(F)(F)F)cc1[N+](=O)[O-]; 1.12
4. CCC(C)Nc1c([N+](=O)[O-])cc(C(C)(C)C)cc1[N+](=O)[O-] (configuration not stated); 0.989
5. CCC(CC)Nc1c([N+](=O)[O-])cc(C)c(C)c1[N+](=O)[O-]; 0.843
6. CSC(C)(C)C=NO; 1.06
7. CCCSP(=O)(OCC)SCCC; 1.08

----------
Tested on: HEK293T (UBE3A T485A transfected, BAR Wnt reporter)
Test: Renilla luciferase signal (cell health) relative to plate median (fold (linear ratio)); higher = higher Renilla signal
Conditions: concentration: 1 uM; 24 h
The full ranking holds about 1,100 compounds; the median of “Renilla luciferase signal (cell health) relative to plate median” is about 0.97, and the highest 2% start at about 1.6. Only a selection was taken, and the highest values are over-represented in it overall.
readout.label: Renilla luciferase signal

1. O=C(Nc1ccc2[nH]ccc2c1)c1cc2cc(F)ccc2n1Cc1cccc(F)c1; 1.02
2. CCN(CC)c1nc(C)cc(OP(=S)(OC)OC)n1 [Pirimiphos-methyl]; 1
3. O=C1C2CC=CCC2C(=O)N1SC(Cl)(Cl)Cl (centres undefined) [Captan]; 0.975
4. [N-]=[N+]=[N-].[Na+] [Sodium Azide]; 1.01

----------
Tested on: HEK293T (UBE3A T485A transfected, BAR Wnt reporter)
Assay: Renilla luciferase signal (cell health) relative to plate median (fold (linear ratio)); higher = higher Renilla signal
Settings: concentration: 1 uM; 24 h
Whole data set: some 1,100 compounds, median “Renilla luciferase signal (cell health) relative to plate median” near 0.97, cut for the highest 2% near 1.6. The full list was thinned out, with the highest values kept by preference.
Each item that follows carries a reported Renilla luciferase signal.
readout.label: Renilla luciferase signal

1) O=c1n(Cl)c(=O)n(Cl)c(=O)n1Cl; 0.923
2) CN/C(=N\[N+](=O)[O-])NCc1cnc(Cl)s1; 0.897
3) O=C(Nc1ccccc1)c1ccccc1I; 0.924
4) Cc1[nH]c(=O)n(C(C)(C)C)c(=O)c1Cl; 0.903
5) O=C(Nc1ccccc1-c1ccc(Cl)cc1)c1cccnc1Cl; 0.903
6) CC(C)(C)c1ccccc1O; 0.913
7) COC(=O)NS(=O)(=O)c1ccc(N)cc1; 0.923

----------
Tested on: HEK293T (UBE3A T485A transfected, BAR Wnt reporter)
Experiment: Renilla luciferase signal (cell health) relative to plate median (fold (linear ratio)); higher = higher Renilla signal
Conditions: concentration: 0.01 uM; 24 h
The full ranking holds about 1,100 compounds; the median of “Renilla luciferase signal (cell health) relative to plate median” is about 0.97, and the highest 2% start at about 1.6. The list comes from a sample in which the highest values are over-represented; it also holds close analogues and randomly drawn compounds.
Renilla luciferase signal listing for selected compounds.
readout.label: Renilla luciferase signal

1. Nc1nc(N)nc(NC2CC2)n1 [Cyromazine]; 1.1
2. CCCCNC(=O)OCC#CI [3-Iodo-2-propynyl-N-butylcarbamate]; 0.922
3. CC1=C(C(=O)Nc2ccccc2)SCCO1 [Carboxin]; 0.996
4. CNC(=O)Oc1ccccc1OC(C)C [Propoxur]; 0.908
5. CNC(=S)[S-].O.O.O.[Na+] [Metam-sodium hydrate]; 1.32
6. NC1=NC(O)C2C3OC4(O)OC(C(O)C2(N1)C4O)C3(O)CO (stereo unspecified) [Tetrodotoxin (TTX)]; 1.02

----------
Tested on: HEK293T (UBE3A T485A transfected, BAR Wnt reporter)
Experiment: Renilla luciferase signal (cell health) relative to plate median (fold (linear ratio)); higher = higher Renilla signal
Settings: concentration: 100 uM; 24 h
In all, about 1,100 compounds were measured (“Renilla luciferase signal (cell health) relative to plate median”: median about 0.97, highest 2% from about 1.6 on). The sample as a whole holds a higher share of the highest values than the screen did.
List of Renilla luciferase signal values.
readout.label: Renilla luciferase signal

1. Clc1ccc(C(Cl)(Cl)Cl)cc1 [4-Chlorobenzotrichloride]; 0.663
2. COC(=O)NC(=S)Nc1ccccc1NC(=S)NC(=O)OC [Thiophanate-methyl]; 0.274
3. CCC(C)Nc1c([N+](=O)[O-])cc(C(C)(C)C)cc1[N+](=O)[O-] (stereo not given); 1.94
4. CCCCOC(=O)c1ccccc1C(=O)OCc1ccccc1 [Benzyl butyl phthalate]; 1.04
5. CCOc1nc(F)cc2nc(S(=O)(=O)Nc3c(Cl)cccc3Cl)nn12; 0.911
6. Cc1[nH]c(=O)n(C(C)(C)C)c(=O)c1Cl; 1.53
7. O=C(NC(=O)c1cc(F)c(F)cc1Cl)Nc1cc(F)ccc1N1CCC(C(=O)O)CC1; 0.641
8. COP(=S)(OC)Oc1nc(Cl)c(Cl)cc1Cl; 0.838
9. Oc1ccccc1-c1ccccc1; 0.987
10. CNC(=O)ON=CC(C)(C)SC; 1.72
11. CCC[CH2][Sn]([Cl])([CH2]CCC)[CH2]CCC [Tributyltin chloride]; 0.0217
12. CN(C)C(=S)[S-].CN(C)C(=S)[S-].[Zn+2]; 0.0214
13. O=C(O)CNCP(=O)(O)O [Glyphosate]; 2.5
14. O=C(O)C(F)(F)C(F)(F)C(F)(F)C(F)(F)C(F)(F)C(F)(F)C(F)(F)F; 1.9
15. CCCOc1nn(C(=O)[N-]S(=O)(=O)c2ccccc2C(=O)OC)c(=O)n1C.[Na+] [Propoxycarbazone-sodium]; 1.2
16. CN(C)C(=S)[S-].[Na+] [Sodium dimethyldithiocarbamate]; 1.06
17. COC(=O)c1ccccc1N [Methyl 2-aminobenzoate]; 1.51
18. Cc1cc(O)ccc1Cl; 1.06
19. C=CC1(C)OC(=O)N(c2cc(Cl)cc(Cl)c2)C1=O (stereo not given); 2.37
20. CCOP(=S)(OCC)Oc1ccc2c(C)c(Cl)c(=O)oc2c1; 0.717
21. CNC(=O)ON=C(C)SC; 1.25
22. CCCOC/C(=N\c1ccc(Cl)cc1C(F)(F)F)n1ccnc1; 1.45
23. CN(C)NC(=O)CCC(=O)O [Daminozide]; 1.39
24. Cc1ccn2nc(S(=O)(=O)Nc3c(F)cccc3F)nc2n1; 1.67
25. C#CCN1C(=O)COc2cc(F)c(N3C(=O)C4=C(CCCC4)C3=O)cc21; 0.949

----------
Test system: HEK293T (UBE3A T485A transfected, BAR Wnt reporter)
Experiment: Renilla luciferase signal (cell health) relative to plate median (fold (linear ratio)); higher = higher Renilla signal
Conditions: concentration: 10 uM; 24 h
Over roughly 1,100 compounds, “Renilla luciferase signal (cell health) relative to plate median” has its median near 0.97; the highest 2% begin near 1.6. Many of the other results were omitted from the sample, so the highest values are more common in it than they were.
readout.label: Renilla luciferase signal

1) CC1(C)C(C=C(Cl)Cl)C1C(=O)OC(C#N)c1ccc(F)c(Oc2ccccc2)c1 (centres undefined); 0.975
2) CC1C(c2ccc(Cl)cc2)SC(=O)N1C(=O)NC1CCCCC1 (centres undefined); 0.977
3) CN(C)C(=S)[S-].CN(C)C(=S)[S-].[Zn+2]; 0.999
4) O=C(O)c1nc(Cl)ccc1Cl; 1
5) COC(=O)NC(=S)Nc1ccccc1NC(=S)NC(=O)OC [Thiophanate-methyl]; 1.01
6) CCC(CC)Nc1c([N+](=O)[O-])cc(C)c(C)c1[N+](=O)[O-]; 1.02
7) Cc1cc(O)ccc1Cl; 0.977
8) CCCOc1nn(C(=O)[N-]S(=O)(=O)c2ccccc2C(=O)OC)c(=O)n1C.[Na+] [Propoxycarbazone-sodium]; 0.975
9) OCCCBr; 0.988
